- TARGET_OR_TEST_SYSTEM: OGA (Homo sapiens)
- Construct: endogenous in cells; host or cells: HEK293 cells inducible for P301L mutant human Tau (2N4R)
- ASSAY_PROCEDURE: OGA cellular assay (ICC detection of O-GlcNAcylated proteins in HEK293 cells inducible for P301L mutant human Tau)
- Type: cell-based
- TEST_SETTINGS: HEK293, HEK293 cells inducible for P301L mutant human Tau, maximal effect; Thiamet G 200 uM as maximum
Catalogue of Emax readings, one per entry.
Report only the number, with the unit % understood.

Sample answers from the record:
MOLECULE	TARGET_OR_TEST_SYSTEM	Emax (%)
Cc1cc(C2CCCN(C(C)c3nc4c(cc3F)OCCO4)C2)cc(C(F)F)n1 (stereo not shown) [Product 187]	OGA (Homo sapiens)	92
Cc1cc([C@H]2CCCN([C@@H](C)c3ccc4c(c3)OCC4)C2)cc(C)n1 (racemic) [Product 4]	OGA (Homo sapiens)	70
Cc1cc(C[C@H]2CCCN(C(C)c3cc4c(cc3F)OCCO4)C2)cc(C)n1 (mixture of isomers) [Product 40]	OGA (Homo sapiens)	96
Cc1cc(OC[C@H]2CCCN(C(C)c3nc4c(cc3F)CCO4)C2)cc(C)n1 (single isomer, unassigned) [Product 179]	OGA (Homo sapiens)	72
COc1cc(NC[C@H]2CCCN(C(C)c3nc4c(cc3F)OCCO4)C2)cc(C)n1 (stereo partly shown) [Product 182]	OGA (Homo sapiens)	106
Cc1cc(CO[C@H]2CCCN([C@H](C)c3ccc4c(n3)OCCO4)C2)cc(C)n1 (mixture of isomers) [Product 111]	OGA (Homo sapiens)	29
Cc1cc(C2CCCN(C(C)c3cc4c(cc3F)NCCO4)C2)cc(C)n1 (stereo not shown) [Product 190]	OGA (Homo sapiens)	82
Cc1cc(NC[C@H]2CCCN(C(C)c3ccc4c(n3)OCCO4)C2)nc(C)n1 (stereo partly shown) [Product 157]	OGA (Homo sapiens)	83

Look up and state reported Emax for Cc1cc(C[C@H]2CCCN(C(C)c3cc4c(cc3F)OCCO4)C2)cc(C)n1 (single isomer, unassigned) [Product 42] 86

The origin of these recorded values is patent US20210300943A1.
